The reported numbers originate from patent US10881664B2.

- System: BaF3 EGFR Ex20_V769_D770insASV cells
- test_name: BaF3 anti-proliferation assay
- Format: cell-based
- condition_details: Ba/F3 EGFR, 48 hours
assay_readout: pIC50
pIC50 field: float, defined as -log10 of concentration (mol/L).

IN: Suppose we examine the compound Cc1cc(C(=O)Nc2nc3cccc(Cl)c3n2[C@@H]2CCCCN(C(=O)/C=C/CN(C)C)C2)ccn1 ; what pIC50 value has been reported?
OUT: 7.96
